Assay: Cytotoxicity against dog MDCK cells
Format: cell-based, Canis lupus familiaris
Assignment: determine reported CC50 for the given compounds.

Enquiry: Field request: CC50 | item: O=C1c2ccccc2C(=O)N1c1ccc(CCc2cccc(O)c2)cc1
Return: > 80 µM

Enquiry: Field request: CC50 | item: O=C1c2c(Cl)c(Cl)c(Cl)c(Cl)c2C(=O)N1c1cccc(CCc2ccc(O)c(O)c2)c1
Return: 44 µM

Enquiry: Field request: CC50 | item: COc1ccc(CCc2ccccc2N2C(=O)c3ccccc3C2=O)cc1OC
Return: > 80 µM

Enquiry: Field request: CC50 | item: O=C1c2ccccc2C(=O)N1c1ccccc1CCc1ccc(O)c(O)c1
Return: > 80 µM

Enquiry: Field request: CC50 | item: O=C1c2c(Cl)c(Cl)c(Cl)c(Cl)c2C(=O)N1c1ccc(CCc2ccc(O)c(O)c2)cc1
Return: > 80 µM
